Numbers sourced from patent US20240408169A1.

System: OVCAR3 cells
assayText: MTT proliferation assay, OVCAR3;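 also: compound given as an 8- or 10-point series, one day after plating, with exposure covering roughly 3-4 cell doublings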
Assay type: cell-based
conditionSet: 5 days compound exposure, 1:3 serial dilution starting at 10 μM
*1 amine or outer side, *2 acyl side, *3 side chain or, on linkers, in order; H or OH if unused. Where a SMILES comes first, the peptide text is derived from it. Bridges are numbered along the chain shown (N, C = ends). [ ]: non-standard residue; d: D form. The star is where a group is joined. X38 = CN([C@@H](Cc1cc(Cl)ccc1-c1ccc(N2C[C@H]3COC[C@H]3C2)cc1)C(=O)[*:2])[*:1]; X175 = Cc1cc(-c2ccc(Cl)cc2C[C@@H](C(=O)[*:2])N(C)[*:1])ccc1N1CCOCC1; NMehhhLys(Me) = CN([C@@H](CCCCCCCN(C)[*:3])C(=O)[*:2])[*:1]; NMe(hhhLys) = CN([C@@H](CCCCCCCN[*:3])C(=O)[*:2])[*:1]; X88 = CC(C)c1ccc(Cl)cc1C[C@@H](C(=O)[*:2])N(C)[*:1]; cBuCO(3,3-F2-1-CF3) = O=C(C1(C(F)(F)F)CC(F)(F)C1)*; Pro(trans-4-F) = O=C(O)[C@@H]1C[C@@H](F)CN1; Gly(cPr) = N[C@H](C(=O)O)C1CC1
I'd appreciate it if you marked entries met when GI50 is lower than 0.04 µM and not met when it is not.

Sample answers from the record:
# molecule, discreteLabel
measured = [
    ("CC[C@H](NC(=O)C1(C(F)(F)F)CC1)C(=O)N[C@@H](C)C(=O)N[C@H]1CC=CCCCCNC(=O)[C@H](Cc2cc(Cl)ccc2Cl)N(C)C(=O)[C@H](CC(C)C)NC1=O", "not met"),
    ("CC(C)C[C@@H]1NC(=O)[C@@H](N(C)C(=O)[C@@H](NC(=O)[C@@H]2C[C@@H](F)CN2C(=O)C2(C(F)(F)F)CC(F)(F)C2)C2CC2)C/C=C\\CCCCN(C)C(=O)[C@H](Cc2cc(Cl)ccc2-c2cnn(S(C)(=O)=O)c2)N(C)C1=O", "met"),
    ("CC(C)C[C@@H]1NC(=O)[C@@H](N(C)C(=O)[C@@H](NC(=O)[C@@H]2C[C@@H](F)CN2C(=O)C2(C(F)(F)F)CC(F)(F)C2)C2CC2)CCCCCCCNC(=O)[C@H](Cc2cc(Cl)ccc2C(C)C)N(C)C1=O [Example 63] ({cBuCO(3,3-F2-1-CF3)}-[Pro(trans-4-F)][Gly(cPr)][NMe(hhhLys)]L[X88]; lactam 3-C)", "not met"),
    ("CC(C)C[C@@H]1NC(=O)[C@@H](N(C)C(=O)[C@@H](NC(=O)[C@@H]2C[C@@H](F)CN2C(=O)C2(C(F)(F)F)CC(F)(F)C2)C2CC2)CCCCCCCN(C)C(=O)[C@H](Cc2cc(Cl)ccc2-c2ccc(N3C[C@H]4COC[C@H]4C3)cc2)N(C)C1=O [Example 363] ({cBuCO(3,3-F2-1-CF3)}-[Pro(trans-4-F)][Gly(cPr)][NMehhhLys(Me)]L[X38]; lactam 3-C)", "met"),
]

Then this molecule:
Query: Item Cc1cc(-c2ccc(Cl)cc2C[C@H]2C(=O)N(C)CCCCCCC[C@H](N(C)C(=O)[C@@H](NC(=O)[C@@H]3C[C@@H](F)CN3C(=O)C3(C(F)(F)F)CC(F)(F)C3)C3CC3)C(=O)N[C@@H](CC(C)C)C(=O)N2C)ccc1N1CCOCC1 [Example 344] ({cBuCO(3,3-F2-1-CF3)}-[Pro(trans-4-F)][Gly(cPr)][NMehhhLys(Me)]L[X175]; lactam 3-C) : GI50 beneath 0.04 µM, strictly?
Response: met
